# SUBJECT OF TEST: T1, recombinant human TfR1 (transferrin receptor protein 1) (human, UniProt P02786 89-760)
# T1 construct: Recombinant protein in SPR and ELISA; they were assigned to this molecule; also called hTfR1; huTfR1
# ASSAY EXPLANATION: kinetic analysis (Biacore), Table 7; TfR1 species not stated
ATTRIBUTE MEASURED: pKd
Scale for pKd: -log10 of concentration given in mol/L; no unit attached.

Solved entries (count: 2):
humanized anti-TfR Fab 3M12 VH4/Vκ2 (Fab, V domains shown, also called 3M12 (VH4/Vk2)) VH: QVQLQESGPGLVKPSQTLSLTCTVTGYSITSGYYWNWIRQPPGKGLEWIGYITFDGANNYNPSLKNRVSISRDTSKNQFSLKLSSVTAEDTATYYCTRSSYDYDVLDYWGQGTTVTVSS VL: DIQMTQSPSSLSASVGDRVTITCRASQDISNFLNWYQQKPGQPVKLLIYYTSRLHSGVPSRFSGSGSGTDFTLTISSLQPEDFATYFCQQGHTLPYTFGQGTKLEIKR
9.40
humanized anti-TfR Fab 3M12 VH3/Vκ2 (Fab, V domains shown, also called 3M12 (VH3/Vk2)) VH: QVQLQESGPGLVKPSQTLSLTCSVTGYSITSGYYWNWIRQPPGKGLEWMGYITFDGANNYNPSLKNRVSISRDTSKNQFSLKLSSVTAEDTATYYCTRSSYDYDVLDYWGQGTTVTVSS VL: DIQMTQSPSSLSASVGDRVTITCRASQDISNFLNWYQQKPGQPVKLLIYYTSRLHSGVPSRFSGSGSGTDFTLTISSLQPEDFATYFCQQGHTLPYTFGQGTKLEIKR
9.40

Moving on to the next binder.
Input line: For humanized anti-TfR Fab 3M12 VH3/Vκ3 (Fab, V domains shown, also called 3M12 (VH3/Vk3)) VH: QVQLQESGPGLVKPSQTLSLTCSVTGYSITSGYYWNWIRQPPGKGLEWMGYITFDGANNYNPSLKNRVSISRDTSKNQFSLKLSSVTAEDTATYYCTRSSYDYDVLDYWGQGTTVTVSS VL: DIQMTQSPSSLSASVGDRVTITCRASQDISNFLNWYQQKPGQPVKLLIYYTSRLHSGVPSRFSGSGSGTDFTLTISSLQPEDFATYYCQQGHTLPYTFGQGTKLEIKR , what is its reported pKd?
Output line: 9.46

Data origin: patent US11844843
